Ref: patent EP2974737A1

# experimental target: monoclonal antibody 21-4-3
# Sequence (VH, as listed by the source, form in doubt, chain 1 of 2): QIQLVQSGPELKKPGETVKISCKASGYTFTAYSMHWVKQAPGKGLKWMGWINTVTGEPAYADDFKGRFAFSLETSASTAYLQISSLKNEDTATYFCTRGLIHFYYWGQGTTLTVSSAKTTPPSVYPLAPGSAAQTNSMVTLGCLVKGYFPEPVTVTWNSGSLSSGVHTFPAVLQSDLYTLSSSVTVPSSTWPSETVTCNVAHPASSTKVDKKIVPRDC
# Sequence (VL, as listed by the source, form in doubt, chain 2 of 2): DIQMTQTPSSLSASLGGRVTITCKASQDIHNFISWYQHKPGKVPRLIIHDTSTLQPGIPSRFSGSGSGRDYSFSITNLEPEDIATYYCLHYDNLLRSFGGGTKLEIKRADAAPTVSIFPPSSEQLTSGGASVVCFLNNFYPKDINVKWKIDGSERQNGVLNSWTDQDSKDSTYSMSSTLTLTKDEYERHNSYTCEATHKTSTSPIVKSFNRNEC
# experimental protocol: SPR, captured 21-4-3, 500 nM; % of Fig. 9 reference
Attribute: binding of 21-4-3, % of Reference Sequence
Write the answer as a number in %, unit excluded.

Would you please look over these solved cases?
[
  {
    "binder": "SEQ ID NO: 66 (VHH) VHH: EVQLVESGGGSVQPGGSLRLSCAASRSIGRLDRMGWYRHRPGEPRELVATITGGSSINYGDSVKGRFTISIDNSKNTVYLQMNSLRPEDTAVYYCNFNKYVTSRDTWGQGTLVTVSS",
    "result units": "%",
    "result value": 48
  },
  {
    "binder": "SEQ ID NO: 47 (VHH) VHH: EVQLVESGGGLVQPGGSLRLSCAASGSVFKINVMAWYRQAPGKGRELVAGIISGGSTSYADSVKGRFTISRDNAKNTLYLQMNSLRPEDTAVYYCAFITTESDYDLGRRYWGQGTLVTVSS",
    "result units": "%",
    "result value": 4
  },
  {
    "binder": "SEQ ID NO: 87 (VHH) VHH: EVQLVESGGGSVQPGGSLRLSCAASRSIGRLDRMGWYRHRPGEPRELVATITGGSSINYGDSVKGRFTISIDNSKNTVYLQMNSLRPEDTAVYYCNFNKYVTSRDTWGQGTLVTVGG",
    "result units": "%",
    "result value": 41
  }
]

Proceeding to the next binder to report its binding of 21-4-3, % of Reference Sequence.
**Q:** Value lookup for binding of 21-4-3, % of Reference Sequence; key = SEQ ID NO: 84 (VHH) VHH: EVQLVESGGGLVQPGGSLRLSCAASRSIGRLDRMGWYRHRPGEPRELVATITGGSSINYGDSVKGRFTISIDNSKNTVYLQMNSLRPEDTAVYYCNFNKYVTSRDTWGQGTLVTVGS
**A:** 91
